Sourced from ChEMBL document CHEMBL3286172

Test system: Human immunodeficiency virus 1
ASSAY_PROTOCOL: Fold resistance, ratio of EC50 for HIV-1 harboring NNTRI-resistant reverse transcriptase Y181C mutant infected in human MT4 cells to EC50 for wild type HIV-1 NL4-3 infected in human MT4 cells
Format: functional
REPORTED_ENDPOINT: Ratio EC50
API note: the answer field is a bare number with no unit suffix.

Below: 8 compounds and their reported Ratio EC50.
INSERT INTO assay_data (compound, study_system, meas_value) VALUES
  ('CCC(C)Sc1nc(Cc2c(F)cccc2Cl)c(C)c(=O)[nH]1 (configuration not stated)', 'Human immunodeficiency virus 1', 111),
  ('CCCSc1nc(C(CC)c2c(F)cccc2Cl)c(C)c(=O)[nH]1 (racemic)', 'Human immunodeficiency virus 1', 108),
  ('CCCSc1nc(C(C)c2c(F)cccc2Cl)cc(=O)[nH]1 (racemic)', 'Human immunodeficiency virus 1', 767),
  ('CCCSc1nc(Cc2c(F)cccc2Cl)cc(=O)[nH]1', 'Human immunodeficiency virus 1', 31),
  ('CCC(c1nc(SC(C)C)[nH]c(=O)c1C)c1c(F)cccc1F (racemic)', 'Human immunodeficiency virus 1', 187),
  ('Cc1c(C(C)c2c(F)cccc2F)nc(SC2CCCC2)[nH]c1=O (racemic)', 'Human immunodeficiency virus 1', 100),
  ('CCCCSc1nc(C(C)c2c(F)cccc2Cl)c(C)c(=O)[nH]1 (racemic)', 'Human immunodeficiency virus 1', 2067),
  ('CCC(C)Sc1nc(C(CC)c2c(F)cccc2F)c(C)c(=O)[nH]1 (racemic)', 'Human immunodeficiency virus 1', 375);

Q: Query: Ratio EC50; subject: CCC(C)Sc1nc(Cc2c(F)cccc2Cl)cc(=O)[nH]1 (configuration not stated)
Ans: 52

Q: Query: Ratio EC50; subject: CCCSc1nc(C(C)c2c(F)cccc2Cl)c(C)c(=O)[nH]1 (racemic)
Ans: 5200

Q: Query: Ratio EC50; subject: `CC[C@@H](C)Sc1nc([C@@H](C)c2c(F)cccc2Cl)cc(=O)[nH]1`
Ans: 281

Q: Query: Ratio EC50; subject: `Cc1c(Cc2c(F)cccc2Cl)nc(SC(C)C)[nH]c1=O`
Ans: 70
